Record: compiled Ki on Adenosine receptor A3 (Homo sapiens, UniProt P0DMS8) from multiple reports.
readout: Ki (nM)

Observe how each entry below is paired with its result.
{"compound": "Cc1sccc1NC(=O)Nc1nc2nn(C)cc2c2nc(-c3ccco3)nn12", "Ki, nM": 3.5}
{"compound": "CC(C)Nc1nc(NC(=O)c2ccccc2)n2nc(-c3ccco3)nc2n1", "Ki, nM": 13400}
{"compound": "CC(C(=O)Nc1nc2ccc(Cl)cc2c2nc(-c3ccco3)nn12)(c1ccccc1)c1ccccc1", "Ki, nM": 194}

A. CNC(=O)[C@H]1O[C@@H](n2cnc3c(N)ncnc32)[C@H](O)[C@@H]1O
B. CCNC(=O)[C@H]1S[C@@H](n2cnc3c(NCc4cccc(I)c4)ncnc32)[C@H](O)[C@@H]1O
Request: Higher Ki: A or B ? Bench note: the answer is the label of the chosen record.
Response: A

A. Nc1nc(OCCCc2ccccc2)nc2c1ncn2[C@@H]1O[C@H](CO)[C@@H](O)[C@H]1O
B. Cc1cccc(Nc2nc3c(=O)[nH]c(C)nc3s2)c1
Request: Higher Ki: A or B ? Label of pick, please.
Response: B
(B: 450 nM, A: 66 nM)

----------
Please find below pKi data on the protein given by its sequence compiled from the literature.
Target chain: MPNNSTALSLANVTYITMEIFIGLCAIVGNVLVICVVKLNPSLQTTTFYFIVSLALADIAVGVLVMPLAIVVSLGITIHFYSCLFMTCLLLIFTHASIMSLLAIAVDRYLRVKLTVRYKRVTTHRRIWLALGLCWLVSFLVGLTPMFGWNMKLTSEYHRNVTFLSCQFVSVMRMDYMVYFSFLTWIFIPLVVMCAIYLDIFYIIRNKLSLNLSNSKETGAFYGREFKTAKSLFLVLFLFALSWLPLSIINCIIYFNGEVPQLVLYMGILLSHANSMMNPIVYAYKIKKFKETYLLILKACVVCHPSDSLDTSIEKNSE
pKi: −log10 of the molar value.
readout: pKi

{"smiles.notation": "Cn1ncc2nc(NC3CCCCC3)n3nc(-c4ccco4)nc3c21", "pKi": 6.29}
{"smiles.notation": "COc1ccc(NC(=O)c2nc(N)nc3ccccc23)cc1", "pKi": 7.06}

P. CCNC(=O)[C@H]1O[C@@H](n2cnc3c(Nc4ccc(OCC(=O)NCc5ccccc5)cc4)nc(Cl)nc32)[C@H](O)[C@@H]1O
Q. N#Cc1c(N)nc(SCc2ccccn2)c(C#N)c1-c1ccco1
R. CC(C)OC(=O)c1nc2c(O)nc3ccccc3n2n1
Request: Rank entries according to their pKi, from the largest number down. Rank them, then answer with their labels in that order.
Response: P, Q, R

----------
Before we begin, note that these Ki values for the protein given by its sequence originate from several publications.
Protein target, amino acids: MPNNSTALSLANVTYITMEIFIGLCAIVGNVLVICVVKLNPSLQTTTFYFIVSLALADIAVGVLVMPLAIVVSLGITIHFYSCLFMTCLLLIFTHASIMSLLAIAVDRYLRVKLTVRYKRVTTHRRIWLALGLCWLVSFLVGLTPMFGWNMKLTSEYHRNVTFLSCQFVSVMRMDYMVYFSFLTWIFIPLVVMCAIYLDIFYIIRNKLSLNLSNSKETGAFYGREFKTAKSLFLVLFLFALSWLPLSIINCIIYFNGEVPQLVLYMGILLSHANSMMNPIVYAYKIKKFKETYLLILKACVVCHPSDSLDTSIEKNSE
readout: Ki (µM)

Record excerpt, results attached:
{"compound": "COCCNc1nc(Cl)nc2c1ncn2[C@@H]1S[C@H](C(=O)N(C)C)[C@@H](O)[C@H]1O", "Ki [µM]": 0.425}
{"compound": "O=C(Cc1ccc2ccccc2c1)Nc1nc2nn(CCc3ccccc3)cc2c2nc(-c3ccco3)nn12", "Ki [µM]": 0.18}
{"compound": "Nc1nc(-n2cncn2)c2nnn(Cc3ccccc3F)c2n1", "Ki [µM]": 2.81}
{"compound": "Cc1ccc(-c2nc(N)c3nn(Cc4cccc(F)c4)cc3n2)o1", "Ki [µM]": 0.427}
{"compound": "O=C(Nc1nc(-c2ccccc2)ns1)c1ccccc1", "Ki [µM]": 0.41}

1. Nc1nc(-c2ccc(OCCN3CCCC3)cc2)cn2c(=O)n(-c3ccccc3)nc12
2. COC(=O)c1cc2c3ccccc3[nH]c(=O)n2n1
Request: For this pair, 1 and 2 , which shows a numerically higher Ki? Mark your selection by writing its label.
Response: 1

a. CCNC(=O)[C@H]1OC(n2cnc3c(NCCCCCCNc4ccc([N+](=O)[O-])c5nonc45)ncnc32)[C@H](O)[C@@H]1O (some centres undefined)
b. Nc1nc(-c2ccc(NC(=O)c3ccc(O)cc3)cc2)cn2c(=O)n(-c3ccccc3)nc12
Request: Param pair: a , b . Output: the one whose Ki is numerically greater. Reply with the label of the item you choose.
Response: b
(b: 1.07 µM, a: 0.0236 µM)
